Molecular target: UniProt P15145
Readings of pIC50 for the listed compounds
Answer as the number alone; pIC50 is minus log10 of concentration in mol/L.

// worked examples, pIC50 included
{"molecule": "CC(C)C[C@H](NC(=O)NCc1cn(Cc2ccccc2Br)nn1)C(=O)NO", "pIC50": 6.06}
{"molecule": "CC(C)C[C@H](NC(=O)NCc1cn(Cc2ccccc2Cl)nn1)C(=O)NO", "pIC50": 6.17}
{"molecule": "CC(C)C[C@H](NC(=O)NCc1cn(Cc2ccccc2)nn1)C(=O)NO", "pIC50": 5.68}

Sample `CC(C)C[C@H](NC(=O)NCc1cn(Cc2ccc(Br)cc2)nn1)C(=O)NO` , system: UniProt P15145. Its pIC50 is 5.11

Field pIC50 (system: UniProt P15145) for entry `CC(C)C[C@H](NC(=O)NCc1cn(Cc2cccnc2)nn1)C(=O)NO` = 5.66

----------
Biological target: Aminopeptidase N (Sus scrofa)
Sequence (P15145 whole entry): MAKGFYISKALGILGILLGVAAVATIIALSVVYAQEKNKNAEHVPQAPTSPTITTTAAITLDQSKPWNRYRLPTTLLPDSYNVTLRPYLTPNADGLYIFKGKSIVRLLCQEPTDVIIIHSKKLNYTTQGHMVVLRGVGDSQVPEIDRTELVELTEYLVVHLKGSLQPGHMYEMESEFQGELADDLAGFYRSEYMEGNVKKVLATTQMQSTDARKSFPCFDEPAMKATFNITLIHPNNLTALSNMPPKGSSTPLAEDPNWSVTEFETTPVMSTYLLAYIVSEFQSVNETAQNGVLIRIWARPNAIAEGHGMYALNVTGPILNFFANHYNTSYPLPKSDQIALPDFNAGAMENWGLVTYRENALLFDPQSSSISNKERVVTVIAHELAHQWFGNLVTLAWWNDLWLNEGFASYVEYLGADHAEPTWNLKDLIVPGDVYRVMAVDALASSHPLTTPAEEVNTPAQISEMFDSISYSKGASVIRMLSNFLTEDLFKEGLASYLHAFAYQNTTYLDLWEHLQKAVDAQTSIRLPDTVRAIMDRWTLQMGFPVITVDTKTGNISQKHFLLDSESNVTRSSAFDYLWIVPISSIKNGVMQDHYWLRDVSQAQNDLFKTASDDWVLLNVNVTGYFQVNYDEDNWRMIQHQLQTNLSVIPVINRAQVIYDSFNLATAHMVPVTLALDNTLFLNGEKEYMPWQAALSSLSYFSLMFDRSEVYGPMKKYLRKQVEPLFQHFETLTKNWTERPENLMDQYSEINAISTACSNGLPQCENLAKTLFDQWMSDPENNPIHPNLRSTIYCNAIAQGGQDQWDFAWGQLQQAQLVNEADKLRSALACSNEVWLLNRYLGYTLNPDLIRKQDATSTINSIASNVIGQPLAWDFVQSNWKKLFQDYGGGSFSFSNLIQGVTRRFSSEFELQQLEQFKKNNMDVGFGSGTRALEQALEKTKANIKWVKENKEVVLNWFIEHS
readout_kind: pIC50
Scale: negative log10 of molar concentration, which is what pIC50 denotes.

{"molecule": "Cc1cccc(Cn2cc(CNC(=O)N[C@@H](CC(C)C)C(=O)NO)nn2)c1", "readout_number": 5.66}
{"molecule": "CC(C)C[C@H](NC(=O)NCc1cn(Cc2ccccc2N)nn1)C(=O)NO", "readout_number": 6.17}

Now let's try a different one.
Quick note, pIC50 for `CC(C)C[C@H](NC(=O)NCc1cn(Cc2cccc(Cl)c2)nn1)C(=O)NO` landed at 5.51
